Biological target: TGF-beta1 (hTGF-beta1) (Homo sapiens, UniProt P01137 P01137:279-390)
Sequence (P01137 279-390, one chain of several): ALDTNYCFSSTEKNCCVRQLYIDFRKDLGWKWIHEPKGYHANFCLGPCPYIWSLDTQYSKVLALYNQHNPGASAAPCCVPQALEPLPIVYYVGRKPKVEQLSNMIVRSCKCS
Test: filter; biphasic; Kd1 6.02±1.5 nM
Settings: tags: R&D Systems; biotinylated form (NFTG0) used for BIAcore; chain copies: 2
Outcome Measure: Kd
Output should be the measured figure followed by the unit it is expressed in.

Query: Sample 30-39 (ssRNA, 2'-F C and U) RNA: GGGAGGACGAUGCGGUGUCUUUAGCUUAGGUGAUUCCUUCUGCCGCAGACGACUCGCCCGA — what was its Kd?
Reply: 0.0325 nM
